- Test system: purified recombinant human EGFR protein / BTK
- experiment notes: BTK inhibition selectivity compared with EGFR kinase inhibitory activity (in vitro)
- Format: biochemical
- assay conditions: EGFR assay ATP 1.5 μM
Record form. Attribute: EGFR inhibitory activity IC50 value (nM)/BTK inhibitory activity IC50 value (nM). Fill in for each entry.
No unit in the answer, only the number.

Measured EGFR inhibitory activity IC50 value (nM)/BTK inhibitory activity IC50 value (nM) of C=CC(=O)N[C@H]1CC[C@@H](n2nc(C(=O)Nc3nc4cc(Cl)ccc4o3)c3c(N)ncnc32)CC1 : 100.7

Measured EGFR inhibitory activity IC50 value (nM)/BTK inhibitory activity IC50 value (nM) of CN(C)C/C=C/C(=O)N1CC[C@@H](n2cc(C(=O)Nc3nc4cc(-c5ccccc5)ccc4o3)c3c(N)ncnc32)C1 : 17.6

Measured EGFR inhibitory activity IC50 value (nM)/BTK inhibitory activity IC50 value (nM) of CCN(C)C/C=C/C(=O)N1CC[C@@H](n2cc(C(=O)Nc3nc4cc(Cl)ccc4o3)c3c(N)ncnc32)C1 : 22.1

Measured EGFR inhibitory activity IC50 value (nM)/BTK inhibitory activity IC50 value (nM) of C=CC(=O)N[C@H]1CC[C@H](n2nc(C(=O)Nc3nc4ccccc4o3)c3c(N)ncnc32)CC1 : 12.4

Measured EGFR inhibitory activity IC50 value (nM)/BTK inhibitory activity IC50 value (nM) of Nc1ncnc2c1c(C(=O)Nc1nc3cc(Cl)ccc3o1)cn2[C@@H]1CCN(C(=O)/C=C/CN2CCCCC2)C1 : 37.1

Measured EGFR inhibitory activity IC50 value (nM)/BTK inhibitory activity IC50 value (nM) of C=CC(=O)N1CC[C@@H](n2nc(C(=O)Nc3nc4cc(F)ccc4o3)c3c(N)ncnc32)C1 : 21.3

Measured EGFR inhibitory activity IC50 value (nM)/BTK inhibitory activity IC50 value (nM) of C=CC(=O)NCCCn1nc(C(=O)Nc2nc3ccccc3o2)c2c(N)ncnc21 : 11.0

###

Record form. Attribute: EGFR inhibitory activity IC50 value (nM)/BTK inhibitory activity IC50 value (nM). Fill in for each entry.
- Tested on: purified recombinant human EGFR protein / BTK
- experiment notes: BTK inhibition selectivity compared with EGFR kinase inhibitory activity (in vitro)
- Assay type: biochemical
- assay conditions: EGFR assay ATP 1.5 μM

For C=CC(=O)N1CCC[C@@H](n2nc(C(=O)Nc3nc4ncccc4o3)c3c(N)ncnc32)C1 on purified recombinant human EGFR protein / BTK, measured EGFR inhibitory activity IC50 value (nM)/BTK inhibitory activity IC50 value (nM) was 28.4

For CN(C)C/C=C/C(=O)N1CC[C@@H](n2cc(C(=O)Nc3nc4cc(Cl)ccc4o3)c3c(N)ncnc32)C1 on purified recombinant human EGFR protein / BTK, measured EGFR inhibitory activity IC50 value (nM)/BTK inhibitory activity IC50 value (nM) was 24.8

For Nc1ncnc2c1c(C(=O)Nc1nc3cc(Cl)ccc3o1)cn2[C@@H]1CCN(C(=O)/C=C/CN2CCCC2)C1 on purified recombinant human EGFR protein / BTK, measured EGFR inhibitory activity IC50 value (nM)/BTK inhibitory activity IC50 value (nM) was 25.5

For C=CC(=O)N1CC(Cn2nc(C(=O)Nc3nc4cc(F)ccc4o3)c3c(N)ncnc32)C1 on purified recombinant human EGFR protein / BTK, measured EGFR inhibitory activity IC50 value (nM)/BTK inhibitory activity IC50 value (nM) was 58.2

For C=CC(=O)N1CC(n2nc(C(=O)Nc3nc4cc(F)ccc4o3)c3c(N)ncnc32)C1 on purified recombinant human EGFR protein / BTK, measured EGFR inhibitory activity IC50 value (nM)/BTK inhibitory activity IC50 value (nM) was 20.6

For Nc1ncnc2c1c(C(=O)Nc1nc3cc(Cl)ccc3o1)nn2[C@@H]1CCCN(C(=O)/C=C/CN2CCCC2)C1 on purified recombinant human EGFR protein / BTK, measured EGFR inhibitory activity IC50 value (nM)/BTK inhibitory activity IC50 value (nM) was 144.8

For CN(C)C/C=C/C(=O)N1CC[C@@H](n2nc(C(=O)Nc3nc4cc(C(F)(F)F)ccc4o3)c3c(N)ncnc32)C1 on purified recombinant human EGFR protein / BTK, measured EGFR inhibitory activity IC50 value (nM)/BTK inhibitory activity IC50 value (nM) was 17.1

For CN(C)C/C=C/C(=O)N1CCC[C@@H](n2nc(C(=O)Nc3nc4cc(Cl)ccc4o3)c3c(N)ncnc32)C1 on purified recombinant human EGFR protein / BTK, measured EGFR inhibitory activity IC50 value (nM)/BTK inhibitory activity IC50 value (nM) was 145.0

For C=CC(=O)N1CCC(n2nc(C(=O)Nc3nc4cc(F)ccc4o3)c3c(N)ncnc32)C1 (centres unmarked) on purified recombinant human EGFR protein / BTK, measured EGFR inhibitory activity IC50 value (nM)/BTK inhibitory activity IC50 value (nM) was 39.6

For C=CC(=O)N1CCC(Cn2nc(C(=O)Nc3nc4cc(F)ccc4o3)c3c(N)ncnc32)CC1 on purified recombinant human EGFR protein / BTK, measured EGFR inhibitory activity IC50 value (nM)/BTK inhibitory activity IC50 value (nM) was 203.7

For C=CC(=O)N1CCCC(Cn2nc(C(=O)Nc3nc4ccccc4o3)c3c(N)ncnc32)C1 (centres unmarked) on purified recombinant human EGFR protein / BTK, measured EGFR inhibitory activity IC50 value (nM)/BTK inhibitory activity IC50 value (nM) was 18.0

For CCN(C)C/C=C/C(=O)N1CC[C@@H](n2cc(C(=O)Nc3nc4cc(-c5ccccc5)ccc4o3)c3c(N)ncnc32)C1 on purified recombinant human EGFR protein / BTK, measured EGFR inhibitory activity IC50 value (nM)/BTK inhibitory activity IC50 value (nM) was 19.3

For C=CC(=O)N[C@H]1CC[C@@H](n2nc(C(=O)Nc3nc4cc(F)ccc4o3)c3c(N)ncnc32)CC1 on purified recombinant human EGFR protein / BTK, measured EGFR inhibitory activity IC50 value (nM)/BTK inhibitory activity IC50 value (nM) was 204.9

For CC(C)N(C)C/C=C/C(=O)N1CC[C@@H](n2cc(C(=O)Nc3nc4cc(-c5ccccc5)ccc4o3)c3c(N)ncnc32)C1 on purified recombinant human EGFR protein / BTK, measured EGFR inhibitory activity IC50 value (nM)/BTK inhibitory activity IC50 value (nM) was 16.3

For C=CC(=O)N1CC(Cn2nc(C(=O)Nc3nc4ccccc4o3)c3c(N)ncnc32)C1 on purified recombinant human EGFR protein / BTK, measured EGFR inhibitory activity IC50 value (nM)/BTK inhibitory activity IC50 value (nM) was 12.2

For CCN(CC)C/C=C/C(=O)N1CCC[C@@H](n2nc(C(=O)Nc3nc4cc(Cl)ccc4o3)c3c(N)ncnc32)C1 on purified recombinant human EGFR protein / BTK, measured EGFR inhibitory activity IC50 value (nM)/BTK inhibitory activity IC50 value (nM) was 157.2

For C/C=C/C(=O)N1CCC[C@@H](n2nc(C(=O)Nc3nc4cc(Cl)ccc4o3)c3c(N)ncnc32)C1 on purified recombinant human EGFR protein / BTK, measured EGFR inhibitory activity IC50 value (nM)/BTK inhibitory activity IC50 value (nM) was 241.0

For Nc1ncnc2c1c(C(=O)Nc1nc3cc(Cl)ccc3o1)nn2[C@@H]1CCCN(C(=O)/C=C/CN2CCCCC2)C1 on purified recombinant human EGFR protein / BTK, measured EGFR inhibitory activity IC50 value (nM)/BTK inhibitory activity IC50 value (nM) was 138.2

For C=CC(=O)N1CCC(Cn2nc(C(=O)Nc3nc4ccccc4o3)c3c(N)ncnc32)CC1 on purified recombinant human EGFR protein / BTK, measured EGFR inhibitory activity IC50 value (nM)/BTK inhibitory activity IC50 value (nM) was 11.4

For Nc1ncnc2c1c(C(=O)Nc1nc3cc(-c4ccccc4)ccc3o1)cn2[C@@H]1CCN(C(=O)/C=C/CN2CCCCC2)C1 on purified recombinant human EGFR protein / BTK, measured EGFR inhibitory activity IC50 value (nM)/BTK inhibitory activity IC50 value (nM) was 67.5

For C=CC(=O)N1CCC(n2nc(C(=O)Nc3nc4ccccc4o3)c3c(N)ncnc32)C1 (centres unmarked) on purified recombinant human EGFR protein / BTK, measured EGFR inhibitory activity IC50 value (nM)/BTK inhibitory activity IC50 value (nM) was 10.9

For CN(C)C/C=C/C(=O)N1CC[C@@H](n2nc(C(=O)Nc3nc4cc(Cl)ccc4o3)c3c(N)ncnc32)C1 on purified recombinant human EGFR protein / BTK, measured EGFR inhibitory activity IC50 value (nM)/BTK inhibitory activity IC50 value (nM) was 43.1

For C/C=C/C(=O)N1CC[C@@H](n2nc(C(=O)Nc3nc4cc(Cl)ccc4o3)c3c(N)ncnc32)C1 on purified recombinant human EGFR protein / BTK, measured EGFR inhibitory activity IC50 value (nM)/BTK inhibitory activity IC50 value (nM) was 173.7

For C=CC(=O)N1CCC(Cn2nc(C(=O)Nc3nc4cc(Cl)ccc4o3)c3c(N)ncnc32)CC1 on purified recombinant human EGFR protein / BTK, measured EGFR inhibitory activity IC50 value (nM)/BTK inhibitory activity IC50 value (nM) was 75.4

For C=CC(=O)N1CC[C@@H](n2nc(C(=O)Nc3nc4cc(C#N)ccc4o3)c3c(N)ncnc32)C1 on purified recombinant human EGFR protein / BTK, measured EGFR inhibitory activity IC50 value (nM)/BTK inhibitory activity IC50 value (nM) was 37.5

For CCN(CC)C/C=C/C(=O)N1CC[C@@H](n2nc(C(=O)Nc3nc4cc(Cl)ccc4o3)c3c(N)ncnc32)C1 on purified recombinant human EGFR protein / BTK, measured EGFR inhibitory activity IC50 value (nM)/BTK inhibitory activity IC50 value (nM) was 79.3

For CN(C)C/C=C/C(=O)N1CC[C@@H](n2nc(C(=O)Nc3nc4cc(-c5ccccc5)ccc4o3)c3c(N)ncnc32)C1 on purified recombinant human EGFR protein / BTK, measured EGFR inhibitory activity IC50 value (nM)/BTK inhibitory activity IC50 value (nM) was 19.4

For C=CC(=O)N[C@H]1CC[C@@H](n2nc(C(=O)Nc3nc4ccccc4o3)c3c(N)ncnc32)CC1 on purified recombinant human EGFR protein / BTK, measured EGFR inhibitory activity IC50 value (nM)/BTK inhibitory activity IC50 value (nM) was 42.0

For CC(C)N(C)C/C=C/C(=O)N1CC[C@@H](n2nc(C(=O)Nc3nc4cc(Cl)ccc4o3)c3c(N)ncnc32)C1 on purified recombinant human EGFR protein / BTK, measured EGFR inhibitory activity IC50 value (nM)/BTK inhibitory activity IC50 value (nM) was 35.1

The origin of these recorded values is patent US9580432B2.
